Taken from PubChem BioAssay AID1508600.

Experiment: Components of the Cytosolic LPS Sensing Pathway: Gene Identification via Genome-wide siRNA Screen;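 note: robust z of the log signal after scaling to non-targeting control siRNA wells of the plate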
Conditions: RAW264.7 macrophages, IL-1a HTRF, actives lie on both sides, screened at 100 nM (by protocol), cells primed 5 h with Pam3CSK4 first
Method: Non-canonical inflammasome activation by cytosolic LPS is a critical component of the host response to Gram-negative bacterial infection, however we lack a comprehensive understanding of the cellular processes that control this pathway. […] Lipofectamine RNAiMAX Transfection Reagent ([…]; Invitrogen) was added in […] serum-free, antibiotic-free media to plate wells using a Thermo Scientific Matrix WellMate and Microplate Stacker. […] The plates were read on an EnVision plate reader (PerkinElmer). […]
Among all 53,000 sequences or so, about 3,700 (7%) were called active. Many of the other results were omitted from the sample, so actives are more common in it than they were.
PARAMETER_MEASURED: z-score

Example cases with answers are listed next.
CCUGAUGCAACACAGGUCCTT against Zbtb26; 0.352 (inactive)
GGUGGAGUUAACGAGAAACTT against Ccn1; 0.69 (inactive)
GGAUUUCUCGGAAGUCGAGTT against Cd3e; 0.517 (inactive)

Respectfully, I request z-score for each entry included below.
1. GCUUAGCUGUUAUGUUUUUTT against Atp6ap1
2. GGAAGAGAAUCAAGAGCCATT against Lrrc10
3. GGUACUCGAAUCUGACCUCTT against Nqo1
4. GGCUGGUUUACAACAGAACTT against Pla2g15
5. GAAGAGGGCACCUAGUUUCTT against Cox7b

Resp:
1.81 (inactive)
-2.65 (active)
2.04 (active)
-0.647 (inactive)
0.249 (inactive)
